experiment: Pharmacokinetic studies: bioavailability after oral administration; details: in vivo, nach oraler Gabe, read-out: Bioverfügbarkeit
OUTCOME MEASURE: bioavailability (%)
Form entry: value (%) — number only.

For `O=C1c2ccccc2S(=O)(=O)N1CCCCN1CCN(c2ncccn2)CC1` the molecule record lists bioavailability as 40
